B1: LINE1-full (parent)
chain: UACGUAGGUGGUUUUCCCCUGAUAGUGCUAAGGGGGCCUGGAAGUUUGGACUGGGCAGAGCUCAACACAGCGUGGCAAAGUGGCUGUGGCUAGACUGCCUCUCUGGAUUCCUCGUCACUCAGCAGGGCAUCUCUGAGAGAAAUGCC

variants of: B1; assay: self-cleavage, relative activity (ratio to wild type); higher = more cleavage; in vitro, sequencing; the parent is a self-cleaving ribozyme
reported property: self-cleavage
Lab note: jot down the number only; don't add units.

These solved cases illustrate the format of a correct answer.
INSERT INTO results (mutation_spec, reported_measurement) VALUES
  ('U9A U102C', 1.03),
  ('G25U C123A', 0.95),
  ('C68U U108A', 0.2);

We now examine a further variant.
**Q:** Which self-cleavage is reported for this variant? U91C A129G
**A:** 0.47
